Cited source: paper PMC4057736

Give IC50 for every item shown.
System: T. cruzi Tulahuen CL2 (benznidazole-sensitive)
Experiment: Antitrypanosomal activity (Chagas), β-galactosidase readout on MRC-5 cells
Assay type: cell-based, Trypanosoma cruzi
Details: Trypanosoma cruzi, MRC5, 168 h; Tulahuen CL2 on MRC-5 cells, 7 days; read-out: T. cruzi IC50
Procedure: The integrated panel of microbial screens and standard screening methodologies were adopted as previously described. […] The selectivity antiprotozoal potential was assessed by simultaneous evaluation of cytotoxicity on a fibroblast (MRC-5) cell line. About 1.5 × 10^4 trypomastigotes/well were added to each well and parasite growth was assessed after 72 h at 37 °C by adding resazurin [30]. […]
Unit µM implied. Number only.

I would be grateful if you could share the reported IC50 for CC(C)c1cc2c(c(O)c1O)C13CCCC(C)(C)C1C(O)C2OC3 (centres unmarked) .
24.4

Form field: reported IC50 of O=C(Cn1ccnc1[N+](=O)[O-])NCc1ccccc1 [Benznidazole, reference compound]
2.5

Query: IC50; subject: CC(C)c1cc2c(c(O)c1O)C13CCCC(C)(C)C1CC2OC3 (centres unmarked)
25.6

Could you share which IC50 value was measured for CC(C)C1=CC2=CC(=O)[C@H]3C(C)(C)CCC[C@]3(C)C2=C(O)C1=O ?
25.7

----------
assay: Cytotoxicity assay (resazurin); assay type: cell-based; conditions: human, MRC-5 SV2 cells (fibroblast cell line), MRC-5 cells
experimental-readout: IC50 at 72 h

Fill blank: measured IC50 at 72 h of the molecule CC(C)C1=CC2=CC(=O)[C@H]3C(C)(C)CCC[C@]3(C)C2=C(O)C1=O [Compound (3), taxodione] is ____.
22.6 µM

Fill in the blank: the reported IC50 at 72 h of CC(C)C1=CC2=C(O)C(O)=C3C(C)(C)CCC[C@]3(C)C2=C(O)C1=O [Compound (2), 5,6-didehydro-7-hydroxy-taxodone] is ____.
96.2 µM

Bench note: what IC50 at 72 h did CC(C)c1ccc2c(c1)CC[C@H]1C(C)(C)CCC[C@]21C [Compound (1), dehydroabietane] show?
> 237 µM

Which measured IC50 at 72 h value corresponds to CC/C(=C(\c1ccccc1)c1ccc(OCCN(C)C)cc1)c1ccccc1 [Tamoxifen, reference compound] ?
10.5 µM

Any idea what IC50 at 72 h was measured for CC(C)c1cc2c(c(O)c1O)C13CCCC(C)(C)C1C(O)C2OC3 (centres unmarked) [Compound (5)] ?
5.7 µM

----------
assay: Cytotoxicity assay (resazurin); type: cell-based; settings: human, MRC-5 cells
experimental-readout: IC50 at 72 h (µM)
Provide the reading as a plain figure in µM.

Data request, read-out IC50 at 72 h, for CC(C)c1cc2c(c(O)c1O)C13CCCC(C)(C)C1CC2OC3 (stereo not shown)
6

----------
system: Chloroquine-resistant P. falciparum 2/K 1-strain (erythrocytic schizonts); test: Antiplasmodial activity (Malstat method); type: cell-based, Plasmodium falciparum; settings: Plasmodium falciparum; chloroquine-resistant 2/K 1-strain, 72 h; read-out: P. falciparum IC50
Give measured IC50 for each item. Keep answers brief.
Field format: number, assumed µM, no unit text.

If you can, please state the reported IC50 value of CC(C)c1ccc2c(c1)CC[C@H]1C(C)(C)CCC[C@]21C [Compound (1), dehydroabietane] .
124

Suppose we examine the compound CC(C)c1cc2c(c(O)c1O)C13CCCC(C)(C)C1C(O)C2OC3 (stereo not shown) ; what IC50 value has been reported?
31.6

// IC50 lookup, key: CC(C)c1cc2c(c(O)c1O)C13CCCC(C)(C)C1CC2OC3 (stereo not shown)
11.1

What value of IC50 has been recorded for this entry: CC(C)C1=CC2=CC(=O)[C@H]3C(C)(C)CCC[C@]3(C)C2=C(O)C1=O
8.5
